- ASSAY_OVERVIEW: NCI Yeast Anticancer Drug Screen. Data for the cln2 rad14 strain (AID 165)
- RECORDED_CONDITIONS: S. cerevisiae cln2 rad14 strain, at 50.0 µM
About 79,000 compounds went through this panel and 15% of them were active in at least one assay; those are over-represented in the sample as a whole. Active and inactive are the calls of the source. Rule as the data show it: active = growth inhibition above about 70%; inactive = the rest.
Outcomes you can answer with include only these: active, inactive

Given "CCN(C(=O)O)c1ccc(/C=C/c2ccnc3ccccc23)cc1" , state the outcome it received in this test.
inactive

For "Oc1c(Br)cc(Cl)cc1C(c1cc(Cl)cc(Br)c1O)C(Cl)(Cl)Cl" , what call appears in the results of this test?
active

Would you mind telling me which call this test gave CC(=O)OC1(C)C(=C(Cl)Cl)C2c3ccccc3C1c1ccccc12 (stereo unspecified) ?
inactive

Which result was noted for this molecule in the test: COc1ccccc1C1SC(c2ccccc2)(c2ccccc2)OC1=O (stereo unspecified)
active

Entry "CCOc1c(Br)cc(Br)cc1/C=N/NS(=O)(=O)c1ccc(C)cc1" : call = ?
active

Please state the recorded outcome for this molecule: COc1ccc(C2C3=C(CCC(CN(C)C)C3=O)OC3=C2C(=O)C(CN(C)C)CC3)cc1 (stereo unspecified)
inactive

Recorded test outcome, item "Clc1ccc(/C=C\c2ccncc2)cc1"
inactive

Call for entry CC(NNC(=S)N1CC2CCC(CC2)C1)c1cc2ccccc2cn1 (stereo unspecified) :
active

# fetch the recorded call for "O=C1c2ccccc2C(c2ccccc2)(c2ccccc2)N1c1ccccc1" here
active

Could you kindly confirm the outcome this assay logged for CCCCCCCCCCCC(=O)OCC1OC(n2cc(F)c(=O)[nH]c2=O)C(N)C(O)C1O (stereo unspecified) ?
active

Entry "Nc1ccc(S(=O)(=O)Nc2nc3ccccc3nc2N2CCCCCC2)cc1" : call = ?
active

Provenance of the data: PubChem BioAssay (NCI)
